The values you see were collected from patent US20240368260A1.

Target: T1, recombinant human βIG-H3 (human, UniProt Q15582 24-683)
T1 construct: Bought recombinant protein; also called rhβIG-H3; rhbIG-H3
T1 sequence (looked up): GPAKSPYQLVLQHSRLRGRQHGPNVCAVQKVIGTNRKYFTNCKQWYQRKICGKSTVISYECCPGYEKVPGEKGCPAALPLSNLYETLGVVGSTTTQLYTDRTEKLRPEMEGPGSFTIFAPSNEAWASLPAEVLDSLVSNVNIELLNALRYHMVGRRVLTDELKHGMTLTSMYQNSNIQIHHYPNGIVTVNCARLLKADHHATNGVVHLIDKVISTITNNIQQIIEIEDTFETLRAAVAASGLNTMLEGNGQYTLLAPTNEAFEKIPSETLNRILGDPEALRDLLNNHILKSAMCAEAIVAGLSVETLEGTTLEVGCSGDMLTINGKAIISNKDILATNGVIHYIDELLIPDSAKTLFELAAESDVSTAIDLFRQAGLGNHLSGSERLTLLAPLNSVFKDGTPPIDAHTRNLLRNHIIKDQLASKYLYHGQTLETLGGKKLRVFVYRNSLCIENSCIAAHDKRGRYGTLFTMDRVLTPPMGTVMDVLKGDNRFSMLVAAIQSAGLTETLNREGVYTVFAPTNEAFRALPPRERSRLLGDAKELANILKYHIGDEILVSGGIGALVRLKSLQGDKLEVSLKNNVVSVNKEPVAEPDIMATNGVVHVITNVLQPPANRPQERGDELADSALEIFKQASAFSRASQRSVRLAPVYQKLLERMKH
Test: direct ELISA on coated rhβIG-H3
MEASURE_NAME: binding result

# input binder: H-169/L-228 (antibody, human IgG1, kappa, V domains shown) VH: QVQLVQSGAEVKKPGSSVKVSCKASGFTFSDYYMYWVRQAPGQGLEWVGTISDGGIYAYYAQKVQGRFTITRDSSTSTLYLELSSLRSEDTAVYYCVRGWDRYDSWFACWGQGTTVTVSS VL: DIVMTQSPLSLPVTPGEPASMSCRSSQSLLYSSNQKNYLAWYLQKPGQSPQLLIYWGSTRESGVPDRFSGSGSGTDFTLKISRVEAEDVGVYYCQQYYRYPYTFGQGTKLEIKR ; wanted: its binding result
binds

Same read-out for H-169/L-315 (antibody, human IgG1, kappa, V domains shown) VH: QVQLVQSGAEVKKPGSSVKVSCKASGFTFSDYYMYWVRQAPGQGLEWVGTISDGGIYAYYAQKVQGRFTITRDSSTSTLYLELSSLRSEDTAVYYCVRGWDRYDSWFACWGQGTTVTVSS VL: EIVMTQSPATLSVSPGERATMSCRASQSLLYSSNQKNYLAWYQQKPGQAPRLLIYWASTRETGIPARFSGSGSGTEFTLTISSLQSEDFAVYYCQQYYRYPYTFGQGTKLEIKR ?
binds

Same read-out for H-330/L-315 (antibody, human IgG1, kappa, V domains shown) VH: QVQLVESGGGVVQPGGSLRLSCAASGFTFSDYYMYWVRQAPGKGLEWVATISDGGIYKYYADSVKGRFTISRDSSKNTLYLQMNSLRAEDTAVYYCVRGWDRYDSWFACWGQGTTVTVSS VL: EIVMTQSPATLSVSPGERATMSCRASQSLLYSSNQKNYLAWYQQKPGQAPRLLIYWASTRETGIPARFSGSGSGTEFTLTISSLQSEDFAVYYCQQYYRYPYTFGQGTKLEIKR ?
binds

Same read-out for H-311/L-315 (antibody, human IgG1, kappa, V domains shown) VH: QVQLVESGGGLVKPGGSLRLSCAASGFTFSDYYMYWIRQAPGKGLEWVATISDGGIYIYYADSVKGRFTISRDSAKNSLYLQMNSLRAEDTAVYYCVRGWDRYDSWFACWGQGTTVTVSS VL: EIVMTQSPATLSVSPGERATMSCRASQSLLYSSNQKNYLAWYQQKPGQAPRLLIYWASTRETGIPARFSGSGSGTEFTLTISSLQSEDFAVYYCQQYYRYPYTFGQGTKLEIKR ?
binds
